Test system: rat
Experiment: Intake of 5% sucrose solution in rat model
Assay type: in vivo
Settings: intake of 5% sucrose solution in animal model (rat)
Parameter: Reduction in sucrose solution consumption w.r.t. control animals
// print number alone

In the examples that follow, each entry is paired with its recorded Reduction in sucrose solution consumption w.r.t. control animals.
Compound | Experimental Result
O=C(NN1CCCCC1)c1nn(-c2ccc(Cl)cc2Cl)c2c1CCCc1sc(Cl)cc1-2 | −13.2
O=C(NN1CCOCC1)c1nn(-c2ccc(Cl)cc2Cl)c2c1CCOc1cc(Cl)ccc1-2 | −24.9
O=C(NN1CCCCC1)c1nn(-c2ccc(Cl)cc2)c2c1CCOc1cc(Cl)ccc1-2 | −30.4
O=C(NN1CC2CCCC2C1)c1nn(-c2ccc(Cl)cc2Cl)c2c1CCOc1cc(Cl)ccc1-2 (centres unmarked) | −23.2

`O=C(NN1CCC(O)CC1)c1nn(-c2ccc(Cl)cc2Cl)c2c1CCOc1cc(Cl)ccc1-2` yielded Reduction in sucrose solution consumption w.r.t. control animals of −18.9

Origin of values: patent US8030345B2
